Ref: paper PMC7139504

study.target: HO-1 (Rattus norvegicus, UniProt P06762)
Construct: selected in order to use the most native (i.e., closest to in vivo) forms of HO-1 and HO-2; from tissue; host or cells: spleen microsomal fraction of male Sprague-Dawley rats
Sequence (P06762 whole entry): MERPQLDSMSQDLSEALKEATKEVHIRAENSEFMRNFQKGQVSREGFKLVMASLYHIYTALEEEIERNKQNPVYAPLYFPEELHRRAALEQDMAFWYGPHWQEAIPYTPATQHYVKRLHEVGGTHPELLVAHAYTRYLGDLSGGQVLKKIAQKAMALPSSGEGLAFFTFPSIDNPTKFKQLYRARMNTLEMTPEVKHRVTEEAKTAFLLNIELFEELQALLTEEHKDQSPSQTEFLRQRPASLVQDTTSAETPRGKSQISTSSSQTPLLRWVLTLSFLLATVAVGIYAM
experiment: HO-1 inhibition, bilirubin formation in rat spleen microsomal fraction
Assay type: biochemical
measurement.conditions: rat spleen microsomal fraction; mean ± SD of three determinations; read-out: IC50 (μM) ± SD HO-1
recorded.endpoint: log10(IC50) (log10 of the value in µM)

- compound: "Brc1ccc(COc2ccc(CCn3ccnc3)cc2)cc1"
  recorded.value: 1.80
- compound: "OC(Cn1ccnc1)c1ccc(OCc2ccccc2Br)cc1 (stereo not drawn)"
  recorded.value: 0.95
- compound: "O=C(Cn1ccnc1)c1cccc(-c2ccccc2)c1"
  recorded.value: 1.30
- compound: "OC(Cn1ccnc1)c1cccc(OCc2ccc(Br)cc2)c1 (stereo not drawn)"
  recorded.value: -0.05
- compound: "OC(Cn1ccnc1)c1ccc(OCc2cccc(Br)c2)cc1 (stereo not drawn)"
  recorded.value: 1.61
- compound: "OC(Cn1ccnc1)c1cccc(OCc2ccccc2Br)c1 (stereo not drawn)"
  recorded.value: 1.64
- compound: "Brc1cccc(CCn2ccnc2)c1"
  recorded.value: 2.00
- compound: "O=C(Cn1ccnc1)c1ccc(OCc2ccc(Br)cc2)cc1"
  recorded.value: 1.74
- compound: "O=C(Cn1ccnc1)c1cccc(Br)c1"
  recorded.value: 1.58
- compound: "C=Cc1c2[n-]c(c1C)/C=c1\\[n-]/c(c(C)c1C=C)=C\\c1[n-]c(c(CCC(=O)O)c1C)/C=c1\\[n-]c(c(C)c1CCC(=O)O)=C2.[Sn+4] [SnPP, tin protoporphyrin, reference compound]"
  recorded.value: -0.24
- compound: "c1ccc(-c2cccc(CCn3ccnc3)c2)cc1"
  recorded.value: 1.67
- compound: "Clc1ccc(Cl)c(COC(Cn2ccnc2)c2cccc(Br)c2)c1 (stereo not drawn)"
  recorded.value: 1.82
- compound: "OC(Cn1ccnc1)c1cccc(OCc2cccc(Br)c2)c1 (stereo not drawn)"
  recorded.value: 1.66
